These measurements were taken from patent EP4692090A1.

- Assayed system: ATR kinase (Homo sapiens)
- Construct: purchased Eurofins 14-953
- Assay text: Inhibitory effect on ATR kinase activity (Caliper mobility shift, FAM-labeled RAD17 peptide substrate)
- Type: biochemical
- Protocol conditions: 1 nM ATR kinase (Eurofins), 28°C for 3 hours, maximum concentration 1 µM, 10 concentrations, read-out: ATR kinase IC50
Observation type: IC50

IN: Field request: IC50 | item: C[C@@H]1COCCN1c1cc2c3c(n1)c(-c1cc[nH]n1)nn3CCC(=O)N2 [Compound 93]
OUT: 10 to 100 nM

IN: Try this compound too: CCC1c2cc(N3CCOC[C@H]3C)nc3c2c(nn3-c2cc[nH]n2)CCN1S(=O)(=O)C1CC1 (single isomer, unassigned) [Compound 145A]
OUT: 10 to 100 nM

IN: C[C@@H]1COCCN1c1cc2c3c(n1)c(-c1cc[nH]n1)nn3CCC(=O)N2CC1CC1 [Compound 83] , same question.
OUT: 10 to 100 nM

====

Measured IC50 accompanies every entry in the list below.
- Assayed system: ATR kinase (Homo sapiens, UniProt Q13535)
- Construct: purchased Eurofins 14-953
- Sequence (Q13535 whole entry): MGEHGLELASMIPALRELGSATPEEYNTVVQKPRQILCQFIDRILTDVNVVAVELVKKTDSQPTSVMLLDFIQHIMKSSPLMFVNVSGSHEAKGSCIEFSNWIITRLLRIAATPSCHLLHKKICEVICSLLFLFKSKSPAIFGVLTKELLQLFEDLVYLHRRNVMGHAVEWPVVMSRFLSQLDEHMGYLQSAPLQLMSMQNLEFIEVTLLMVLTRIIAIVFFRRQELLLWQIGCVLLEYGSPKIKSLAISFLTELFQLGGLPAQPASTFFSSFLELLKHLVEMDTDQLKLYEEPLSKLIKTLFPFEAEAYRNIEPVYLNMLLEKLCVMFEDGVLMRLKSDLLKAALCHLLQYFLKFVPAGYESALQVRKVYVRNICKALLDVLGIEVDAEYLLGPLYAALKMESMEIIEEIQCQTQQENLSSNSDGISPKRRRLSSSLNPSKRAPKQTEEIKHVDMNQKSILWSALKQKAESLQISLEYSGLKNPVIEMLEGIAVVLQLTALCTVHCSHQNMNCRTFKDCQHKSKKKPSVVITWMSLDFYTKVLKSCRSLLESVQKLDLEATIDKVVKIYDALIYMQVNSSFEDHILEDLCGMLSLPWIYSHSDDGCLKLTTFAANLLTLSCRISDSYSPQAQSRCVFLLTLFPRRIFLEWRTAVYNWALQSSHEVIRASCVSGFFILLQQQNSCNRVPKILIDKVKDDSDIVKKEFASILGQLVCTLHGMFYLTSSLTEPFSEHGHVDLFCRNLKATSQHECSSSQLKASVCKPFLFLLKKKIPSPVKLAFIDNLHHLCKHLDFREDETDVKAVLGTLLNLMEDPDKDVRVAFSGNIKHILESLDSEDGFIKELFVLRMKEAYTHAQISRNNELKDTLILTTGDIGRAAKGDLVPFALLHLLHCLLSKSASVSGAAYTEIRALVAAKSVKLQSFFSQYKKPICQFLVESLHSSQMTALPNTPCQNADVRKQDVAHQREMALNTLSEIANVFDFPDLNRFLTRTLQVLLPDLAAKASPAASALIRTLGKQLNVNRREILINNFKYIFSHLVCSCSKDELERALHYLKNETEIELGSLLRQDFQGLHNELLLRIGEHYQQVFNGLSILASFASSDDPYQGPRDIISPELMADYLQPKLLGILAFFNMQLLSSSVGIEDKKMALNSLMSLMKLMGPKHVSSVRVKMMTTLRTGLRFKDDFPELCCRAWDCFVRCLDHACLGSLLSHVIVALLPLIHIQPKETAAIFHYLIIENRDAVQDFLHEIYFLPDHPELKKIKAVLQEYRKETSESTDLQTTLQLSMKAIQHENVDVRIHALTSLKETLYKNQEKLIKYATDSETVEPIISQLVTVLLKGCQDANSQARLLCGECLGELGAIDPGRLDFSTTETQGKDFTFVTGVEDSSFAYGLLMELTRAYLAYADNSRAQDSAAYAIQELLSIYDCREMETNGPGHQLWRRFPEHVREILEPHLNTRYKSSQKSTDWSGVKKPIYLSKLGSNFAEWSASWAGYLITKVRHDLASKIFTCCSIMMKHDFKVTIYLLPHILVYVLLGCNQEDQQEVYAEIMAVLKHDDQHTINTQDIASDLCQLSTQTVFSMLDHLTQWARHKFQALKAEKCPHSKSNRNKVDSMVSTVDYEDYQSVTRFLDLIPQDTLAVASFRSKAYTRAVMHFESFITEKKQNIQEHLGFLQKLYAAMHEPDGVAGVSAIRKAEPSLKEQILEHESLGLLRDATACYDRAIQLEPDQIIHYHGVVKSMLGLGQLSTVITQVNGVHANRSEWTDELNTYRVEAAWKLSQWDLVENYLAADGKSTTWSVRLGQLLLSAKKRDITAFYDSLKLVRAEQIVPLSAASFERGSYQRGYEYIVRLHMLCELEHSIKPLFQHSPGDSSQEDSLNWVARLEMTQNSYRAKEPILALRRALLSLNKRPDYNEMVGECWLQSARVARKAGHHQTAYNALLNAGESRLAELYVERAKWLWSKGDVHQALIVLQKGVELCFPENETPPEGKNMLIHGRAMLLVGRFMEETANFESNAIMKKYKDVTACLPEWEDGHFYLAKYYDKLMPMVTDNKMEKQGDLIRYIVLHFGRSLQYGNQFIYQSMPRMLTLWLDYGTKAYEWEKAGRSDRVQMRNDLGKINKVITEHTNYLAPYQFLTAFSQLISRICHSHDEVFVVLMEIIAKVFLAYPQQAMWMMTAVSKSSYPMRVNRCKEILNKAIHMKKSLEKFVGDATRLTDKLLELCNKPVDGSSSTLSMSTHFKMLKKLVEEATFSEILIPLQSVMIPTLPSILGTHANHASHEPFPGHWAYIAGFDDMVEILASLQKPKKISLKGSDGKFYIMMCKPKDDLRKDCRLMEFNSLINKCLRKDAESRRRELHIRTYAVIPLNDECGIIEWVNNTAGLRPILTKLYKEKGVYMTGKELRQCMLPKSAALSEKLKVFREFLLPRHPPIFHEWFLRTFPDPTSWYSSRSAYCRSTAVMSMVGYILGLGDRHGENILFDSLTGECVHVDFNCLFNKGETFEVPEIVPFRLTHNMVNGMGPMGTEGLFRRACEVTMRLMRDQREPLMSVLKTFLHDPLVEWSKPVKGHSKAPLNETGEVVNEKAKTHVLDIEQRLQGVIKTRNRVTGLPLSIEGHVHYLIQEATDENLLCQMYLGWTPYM
- Sequence (Q8WXE1 whole entry partner): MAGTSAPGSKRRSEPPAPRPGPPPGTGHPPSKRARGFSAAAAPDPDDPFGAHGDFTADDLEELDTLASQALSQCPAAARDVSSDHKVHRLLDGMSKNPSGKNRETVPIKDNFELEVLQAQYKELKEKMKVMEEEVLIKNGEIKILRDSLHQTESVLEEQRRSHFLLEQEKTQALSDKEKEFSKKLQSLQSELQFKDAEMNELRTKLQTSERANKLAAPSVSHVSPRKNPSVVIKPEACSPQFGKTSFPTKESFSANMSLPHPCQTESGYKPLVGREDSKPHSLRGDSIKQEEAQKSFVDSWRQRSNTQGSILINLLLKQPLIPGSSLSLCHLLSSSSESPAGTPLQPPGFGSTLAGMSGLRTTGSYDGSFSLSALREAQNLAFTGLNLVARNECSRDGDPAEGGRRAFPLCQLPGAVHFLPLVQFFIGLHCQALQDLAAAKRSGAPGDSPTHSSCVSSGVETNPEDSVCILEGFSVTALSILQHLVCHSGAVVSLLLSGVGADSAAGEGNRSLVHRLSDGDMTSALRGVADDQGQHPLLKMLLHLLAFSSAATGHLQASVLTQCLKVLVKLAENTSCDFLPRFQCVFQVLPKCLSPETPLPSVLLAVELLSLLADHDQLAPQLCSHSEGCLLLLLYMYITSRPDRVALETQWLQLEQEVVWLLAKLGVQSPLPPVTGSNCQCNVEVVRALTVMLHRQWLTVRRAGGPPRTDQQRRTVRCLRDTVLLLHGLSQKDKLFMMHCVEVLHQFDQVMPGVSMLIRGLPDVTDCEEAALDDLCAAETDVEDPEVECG
- Assay text: Inhibitory effect on ATR kinase activity (Caliper mobility shift, FAM-labeled RAD17 peptide substrate)
- Type: biochemical
- Protocol conditions: read-out: ATR kinase IC50, 1 nM ATR kinase (Eurofins), 28°C for 3 hours, maximum concentration 1 µM, 10 concentrations

Some entries whose results are on file:
CC(=O)N1CCc2nn(-c3cc[nH]n3)c3nc(N4CCOC[C@H]4C)cc(c23)C1C (some centres unmarked) [Compound 38] ... < 10 nM
C[C@@H]1COCCN1c1cc2c3c(n1)c(-c1cc[nH]n1)nn3CCCN2CC(C)(C)O [Compound 123] ... 10 to 100 nM
C[C@@H]1COCCN1c1cc2c3c(n1)c(-c1cc[nH]n1)nn3CCC(=O)N2C1CC1(F)F (some centres unmarked) [Compound 89] ... < 10 nM
CC(C1CC1)N1C(=O)CCn2nc(-c3cc[nH]n3)c3nc(N4CCOC[C@H]4C)cc1c32 (some centres unmarked) [Compound 100] ... 10 to 100 nM

IN: Could you share which IC50 value was measured for C[C@@H]1COCCN1c1cc2c3c(n1)c(-c1cc[nH]n1)nn3CCC(=O)N2C1(C#N)CC1 [Compound 105] ?
OUT: < 10 nM

IN: Same for CCC(C)N1C(=O)CCn2nc(-c3cc[nH]n3)c3nc(N4CCOC[C@H]4C)cc1c32 (some centres unmarked) [Compound 98]
OUT: < 10 nM

IN: How about this compound: C[C@@H]1COCCN1c1cc2c3c(n1)c(-c1cc[nH]n1)nn3CCC(=O)N2C1CC2(CC(O)C2)C1 (some centres unmarked) [Compound 97]
OUT: < 10 nM

IN: Same lookup for C[C@@H]1COCCN1c1cc2c3c(n1)c(-c1cc[nH]n1)nn3CCC(=O)N2C1CC(F)(F)C1 [Compound 109] , please.
OUT: 10 to 100 nM

====

- System: LoVo cells
- Assay text: LoVo cell proliferation assay (CellTiter-Glo)
- Assay type: cell-based
- Protocol conditions: Homo sapiens, LoVo, 120 h, LoVo cells, 2,000 cells per well, 5 days incubation, CellTiter-Glo; maximum concentration 10 µM, 9 concentrations; read-out: LoVo IC50
Observation type: IC50

Consider the following illustrative entries.
C[C@@H]1COCCN1c1cc2c3c(n1)c(-c1cc[nH]n1)nn3CCN(C(=O)C1CC1)C2 ... 0.1 to 1 µM
C[C@@H]1COCCN1c1cc2c3c(nn(-c4cc[nH]n4)c3n1)CCN(C(=O)C1CC3(C1)CC3(F)F)C2 (single isomer, unassigned) [Compound 20A] ... > 1 µM
C=CS(=O)(=O)N1CCc2nn(-c3cc[nH]n3)c3nc(N4CCOC[C@H]4C)cc(c23)C1C (stereo partly drawn) ... < 0.1 µM
CC1c2cc(N3CCOC[C@H]3C)nc3c2c(nn3-c2cc[nH]n2)CCN1S(=O)(=O)C1(C)CC1 (single isomer, unassigned) [Compound 49A] ... < 0.1 µM
CC(C)C1c2cc(N3CCOC[C@H]3C)nc3c2c(nn3-c2cc[nH]n2)CCN1S(C)(=O)=O (single isomer, unassigned) [Compound 140A] ... < 0.1 µM

IN: Need IC50 of C[C@@H]1COCCN1c1cc2c3c(n1)c(-c1cc[nH]n1)nn3CCC(=O)N2CCC(F)(F)F , thanks.
OUT: < 0.1 µM
